Recorded inhibition values for a group of compounds are listed next.
# PROCEDURE DETAILS: inhibitors of the yeast RAM network, pilot screen, dse1pr::URA3 reporter, 5-FOA selection (AID 869);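 further: 0% = DMSO wells with no growth and 100% = 10 µM 1-NA-PP1 with full growth; RAM network block rescues cells from 5-FOA so hits raise OD615 growth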
# TEST PARAMETERS: S. cerevisiae dse1pr::URA3 5-FOA growth, OD615, 2 d; at 10 µM; hits give high values; strain carries analog-sensitive mutant Cbk1 kinase
The figure you give is taken to be in %; do not add the unit.

// solved cases for inhibition follow
> print(dat)
                                   compound  endpoint.unit  recorded.value
1  O=C(c1cc(-c2cccc(O)c2)on1)N1CCc2ccccc2C1              %           0.005
2          CCOc1ccc2nc(NC(=O)Nc3cccs3)sc2c1              %            1.08
3           CCO/C(C)=C1\C(=O)N(CC)c2ccccc21              %          -0.745
4  COc1ccc(S(=O)(=O)Cc2ccc(C(=O)N3CCN(c4cc(Cl)ccc4C)CC3)o2)cc1              %            2.08
5  COc1c2c(nc3ccccc13)OC(C(C)(O)COC(C)=O)C2 (stereo unspecified)              %           0.275
6  COc1ccc(S(=O)(=O)N2CCCCC2C(=O)O)cc1OC (stereo unspecified)              %            2.17

Turning now to a further compound:
Exercise: Please report the recorded inhibition for CS(=O)(=O)N(CC(=O)NCc1ccncc1)c1cc(Cl)cc(Cl)c1 .
Solution: 1.33
